Numbers sourced from PubChem BioAssay AID1851.

# experimental.target: Cytochrome P450 3A4 (Homo sapiens) (UniProt P08684)
# Sequence (P08684 whole entry, looked up): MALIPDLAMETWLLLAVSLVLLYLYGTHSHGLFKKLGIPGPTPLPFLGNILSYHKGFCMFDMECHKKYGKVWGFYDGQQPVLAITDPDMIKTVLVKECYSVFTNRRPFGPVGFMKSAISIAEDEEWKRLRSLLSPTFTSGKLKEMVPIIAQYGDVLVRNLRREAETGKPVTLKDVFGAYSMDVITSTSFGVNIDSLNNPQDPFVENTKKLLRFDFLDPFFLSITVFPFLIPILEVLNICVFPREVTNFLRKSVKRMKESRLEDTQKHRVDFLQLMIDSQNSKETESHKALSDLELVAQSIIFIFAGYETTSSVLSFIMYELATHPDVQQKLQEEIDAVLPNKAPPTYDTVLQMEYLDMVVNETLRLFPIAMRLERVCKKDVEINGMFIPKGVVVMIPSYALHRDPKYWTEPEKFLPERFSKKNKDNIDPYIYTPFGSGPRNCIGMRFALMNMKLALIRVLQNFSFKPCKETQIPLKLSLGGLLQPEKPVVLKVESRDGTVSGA
# experimental.details: Cytochrome panel assay with activity outcomes
# condition: recombinant CYP, pro-luciferin dealkylation, luminescence, p450-cyp3a4; series mostly up to 57.1 µM
Screen size: about 16,000 compounds; about 5,100 (32%) were called active. Roughly 25% stayed inconclusive and do not appear here. Calls follow the shape of the dose curve; as a rule, active = well fitted curve in the direction sought with a large enough effect; inconclusive = small, poorly fitted or top-dose-only effect, or effect the other way; inactive = no such curve, though single readings can be large or run the other way. Some of the results follow.
Lab note: assign the record to one of active, inactive

[ask] Any idea what this test logged for FC(F)(F)c1nc2ccccc2nc1N/N=C/c1ccc(Cl)cc1 ?
[reply] active

[ask] Query: recorded result category for O=C(N/C(=C\c1cccs1)C(=O)N1CCCCCC1)c1ccccc1 in this test
[reply] active

[ask] Which outcome was entered for the compound O=C(NCC1CCCO1)/C(=C\c1ccco1)NC(=O)c1ccccc1 (stereo unspecified) in this test?
[reply] inactive

[ask] Write down the call the test reported for this compound. Item: O=C(NC(N1CCCC1)C(Cl)(Cl)Cl)c1ccccc1 (stereo unspecified)
[reply] inactive

[ask] For this compound, state the assay outcome: O=C(COC(=O)c1cccc(S(=O)(=O)N2CCN(c3ccccc3)CC2)c1)NCc1ccco1
[reply] active

[ask] Identify the outcome logged in this assay for the compound shown: CC(=O)c1cccc(NC(=O)/C(=C\c2ccco2)NC(=O)c2cccs2)c1
[reply] active
